# Experimental target: benzodiazepine receptors
# Assay text: Inhibition of the binding to benzodiazepine receptors
# Conditions: rat brains, 1 hour 30 minutes at 4° C., tracers 3H-RO-15-1788 and 3H-RO-5-4864, Table I, read-out: BDZ receptors
pIC50: −log10 of the molar value.
pIC50: recorded values
Attribute measured: pIC50

Cc1nnc2n1-c1sc3c(c1C(c1ccccc1Cl)=NC2)CCN(C(=O)CSc1ccco1)C3    6.64
Cc1nnc2n1-c1sc3c(c1C(c1ccccc1Cl)=NC2)CCN(C(=S)CSc1cccs1)C3    6.14
CCCCCCCCCCCCCCCCSCC(=S)N1CCc2c(sc3c2C(c2ccccc2Cl)=NCc2nnc(C)n2-3)C1    6.04
COc1ccc(SCC(=O)N2CCc3c(sc4c3C(c3ccccc3Cl)=NCc3nnc(C)n3-4)C2)cc1    5.57
Cc1nnc2n1-c1sc3c(c1C(c1ccccc1Cl)=NC2)CCN(C(=O)CSc1ccc(F)cc1)C3    6.20
Cc1nnc2n1-c1sc3c(c1C(c1ccccc1Cl)=NC2)CCN(C(=S)CSc1ccc(Oc2ccccc2)cc1)C3    6.44
Cc1nnc2n1-c1sc3c(c1C(c1ccccc1Cl)=NC2)CCN(C(=S)CSc1cccc(Cl)c1Cl)C3    5.37
